Target: Gal-1 (Homo sapiens, UniProt P09382)
Construct: made in house; host or cells: E. coli BL21(DE3)
Sequence (P09382 whole entry): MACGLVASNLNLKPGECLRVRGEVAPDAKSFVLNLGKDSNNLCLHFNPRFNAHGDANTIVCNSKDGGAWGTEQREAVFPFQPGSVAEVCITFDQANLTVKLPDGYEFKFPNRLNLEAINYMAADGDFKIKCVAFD
Assay: Pull-down assay with immobilized protein and LSM libraries
Type: binding
Settings: H12 library; 1:1 binding assumed; read-out: Surface mapping KD (apparent)
Procedure: Pull-down assays with immobilized test proteins and foldameric LSM libraries were carried out. Proteins were equilibrated with LSM probes, and equilibrium bound fractions (FB) were determined from the unbound fractions measured by HPLC-MS methods. Hits were corrected with background binding of the resin. […] MS data analysis. […] Using these processing setups, all raw data files were reprocessed together and analyzed. […]
Entries and their Kd
Give the quantity in µM, number only.

| COMPOUND_STRUCTURE | MEASUREMENT_TARGET | READOUT_NAME | RESULT |
| --- | --- | --- | --- |
| NC(=O)[C@H]1CCC[C@@H]1NC(=O)[C@H]1CCC[C@@H]1NC(=O)C[C@H](CO)NC(=O)[C@H]1CCC[C@@H]1NC(=O)[C@H]1CCC[C@@H]1NC(=O)C[C@H](CCC(=O)O)NC(=O)[C@H]1CCC[C@@H]1NC(=O)[C@H]1CCC[C@@H]1N | Gal-1 (Homo sapiens, UniProt P09382) | Kd | 289 |

Let's switch to this compound now.
Provide measured Kd value, entry: `CSCC[C@@H](CC(=O)N[C@H]1CCC[C@@H]1C(=O)N[C@H]1CCC[C@@H]1C(=O)N[C@H](CC(=O)N[C@H]1CCC[C@@H]1C(=O)N[C@H]1CCC[C@@H]1C(N)=O)Cc1ccc(O)cc1)NC(=O)[C@H]1CCC[C@@H]1NC(=O)[C@H]1CCC[C@@H]1N` 286

====

target: CaM (Bos taurus); construct: made in house; host or cells: E. coli BL21 (DE3); experiment: Pull-down assay with immobilized protein and LSM libraries; format: binding, bovine; conditions: H14 library; 1:2 stoichiometry assumed; read-out: Surface mapping KD (apparent)
Entries and their pKd
pKd is a log-scale quantity: -log10 of the concentration expressed in molar.

Record excerpt, results attached:
| COMPOUND | READOUT_NAME | RESULT |
| --- | --- | --- |
| CSCC[C@@H](CC(=O)N[C@H]1CCCC[C@@H]1C(N)=O)NC(=O)[C@H]1CCCC[C@@H]1NC(=O)[C@H]1CCCC[C@@H]1NC(=O)C[C@H](Cc1c[nH]c2ccccc12)NC(=O)[C@H]1CCCC[C@@H]1N [H14 WM] | pKd | 5.85 |
| NC(=O)CC[C@@H](CC(=O)N[C@H]1CCCC[C@@H]1C(=O)N[C@H]1CCCC[C@@H]1C(=O)N[C@@H](CO)CC(=O)N[C@H]1CCCC[C@@H]1C(N)=O)NC(=O)[C@H]1CCCC[C@@H]1N [H14 QS] | pKd | 3.73 |

Let's switch to this compound now.
Provide measured pKd value, entry: NC(=O)C[C@@H](CC(=O)N[C@H]1CCCC[C@@H]1C(=O)N[C@H]1CCCC[C@@H]1C(=O)N[C@@H](CO)CC(=O)N[C@H]1CCCC[C@@H]1C(N)=O)NC(=O)[C@H]1CCCC[C@@H]1N [H14 NS] 3.74

====

target: Gal-1 (Homo sapiens); construct: made in house; host or cells: E. coli BL21(DE3); test: Pull-down assay with immobilized protein and LSM libraries; type: binding; settings: H12 library; 1:1 binding assumed; read-out: Surface mapping KD (apparent)
Entries and their Kd
Give the quantity in µM, number only.

| COMPOUND_STRUCTURE | Kd (µM) |
| --- | --- |
| C[C@@H](O)[C@@H](CC(=O)N[C@H]1CCC[C@@H]1C(=O)N[C@H]1CCC[C@@H]1C(N)=O)NC(=O)[C@H]1CCC[C@@H]1NC(=O)[C@H]1CCC[C@@H]1NC(=O)C[C@H](Cc1ccc(O)cc1)NC(=O)[C@H]1CCC[C@@H]1NC(=O)[C@H]1CCC[C@@H]1N | 300 |

Let's switch to this compound now.
Please look at `CC(C)[C@@H](CC(=O)N[C@H]1CCC[C@@H]1C(=O)N[C@H]1CCC[C@@H]1C(N)=O)NC(=O)[C@H]1CCC[C@@H]1NC(=O)[C@H]1CCC[C@@H]1NC(=O)C[C@H](CCC(=O)O)NC(=O)[C@H]1CCC[C@@H]1NC(=O)[C@H]1CCC[C@@H]1N` and tell me its recorded Kd on Gal-1 (Homo sapiens). 316
